- measurement.target: human β-ureidopropionase (HsβUP) (Homo sapiens, UniProt Q9UBR1)
- Construct: gene UPB1
- Sequence (Q9UBR1 whole entry): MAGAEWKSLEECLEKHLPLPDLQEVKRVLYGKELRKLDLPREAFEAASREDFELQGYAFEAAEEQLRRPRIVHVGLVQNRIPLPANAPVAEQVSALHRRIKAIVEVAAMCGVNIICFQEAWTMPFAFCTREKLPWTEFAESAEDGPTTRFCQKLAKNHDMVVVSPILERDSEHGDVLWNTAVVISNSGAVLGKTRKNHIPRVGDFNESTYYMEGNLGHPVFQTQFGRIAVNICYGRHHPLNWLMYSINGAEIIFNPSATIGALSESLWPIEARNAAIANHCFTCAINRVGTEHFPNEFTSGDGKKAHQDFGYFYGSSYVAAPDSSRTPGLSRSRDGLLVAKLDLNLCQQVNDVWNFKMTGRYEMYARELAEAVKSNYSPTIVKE
- protocol.notes: discontinuous OPA fluorescence assay of beta-alanine formation from NCβA
- Format: biochemical
- experimental.setup: pH 6.5, 37 °C, 100 mM MES, 50 mM NaCl; competitive mode assumed (data best fitted as non-competitive); substrate NCβA
Residues, ends and D or L forms follow the SMILES beside them.
property: Ki (µM)
The figure you give is taken to be in µM; do not add the unit.

query: Recorded Ki for NCC(=O)NCC(=O)O [glycyl-glycine] (H-Gly-Gly-OH) , please?
result: 237

These measurements were taken from paper PMC10741476.
